Experiment: Stabilities at elevated temperatures (percent potency loss by HPLC, dry containers)
Assay type: physicochemical
Details: dry solid, 45° C., 2 weeks
readout_label: degraded at 336 h (%)
Number only, in %; omit the unit.

Which degraded at 336 h is reported for this compound? CO/N=C(\C(=O)NC1C(=O)N2C(C(=O)[O-])=C(C[N+]3(C)CCCC3)CSC12)c1csc(N)n1 (stereo not shown) [Zwitterion (Crystalline)]
23

* * *

Test: Stabilities at elevated temperatures (percent potency loss by HPLC, dry containers)
Assay type: physicochemical
Settings: dry solid, 100° C., 1 day
readout_label: degraded at 24 h (%)
Number only, in %; omit the unit.

Which degraded at 24 h is reported for this compound? CO/N=C(\C(=O)NC1C(=O)N2C(C(=O)[O-])=C(C[N+]3(C)CCCC3)CSC12)c1csc(N)n1 (stereo not shown) [Zwitterion (Amorphous), reference compound]
100

src = patent US4680389A
